System: OVCAR-3 ovarian
protocol.description: NCI tumour cell line growth inhibition, 48 h
Lab note: class by TGI, see one = under 6 µM, two = from 6 µM up to 30 µM, three = 30 µM and over

C/C=C\C(CC(=O)O)CC(=O)NCCC1CN(S(=O)(=O)C(F)(F)F)c2ccccc21 (stereo unspecified) : three

Query: Which band does `C=C(C)[C@@H]1CCC[C@]2(C(=O)O)CC[C@]3(C)[C@@H](CC[C@@H]4[C@@]5(C)C/C(=C/c6ccncc6)C(=O)C(C)(C)[C@@H]5CC[C@]43C)[C@@H]12` fall in?
Response: one

Query: # bin label for `O=C(NCCCCl)c1c(O)c2ccccc2[nH]c1=O`
Response: three

Query: Exam item: assign `C[C@@H](C[C@@H](O)[C@H](O)C(C)(C)O)[C@H]1CC=C2[C@]3(C)[C@H](O)C[C@H]4C(C)(C)[C@H](O)CC[C@]4(C)[C@H]3CC[C@@]21C` to the correct category.
Response: two

Query: Sort into band: `C#Cc1ccc(-n2c(/C=C/c3cc(OC)c(OC)c(OC)c3)nc3ncccc3c2=O)cc1`
Response: two

###

Below, each entry is listed with its recorded TGI.
System: A498 renal
protocol.description: NCI tumour cell line growth inhibition, 48 h

CCOC(=O)C(Cc1c(-c2[nH]c3ccccc3c2CC(NC(=O)CNC(C)=O)C(=O)OCC)[nH]c2ccccc12)NC(=O)CNC(C)=O (stereo not given) : > 100 µM
CCC1NCC(=O)c2c1[nH]c1ccccc21 (stereo not given) : > 100 µM

Query: Endpoint output: TGI of `CN1CCN(C(=S)SCN2C(=O)c3ccccc3S2(=O)=O)CC1` . Value?
Response: > 100 µM

Query: Item COC(=O)C(=O)C(C(=O)C(=O)Nc1ccccc1C(N)=O)c1nc2ccc(C(=O)c3ccccc3)cc2[nH]c1=O (stereo not given) has what recorded TGI?
Response: > 100 µM

Query: Please look up its TGI: `COc1cc2c(cc1OC)[C@H]1C(=O)c3cc4c(cc3[C@H]1N(C)C2=O)OCO4`
Response: > 79.5 µM

###

System: SF-268 CNS
protocol.description: NCI tumour cell line growth inhibition, 48 h
parameter: TGI (µM)
Hi! Could you send only the number? It should be in µM, unit omitted.

Recorded results for 7 compounds are shown here.
CN1C(=O)[C@@]2(C=CC3(CC2)OCCO3)c2ccccc21 : 32.2
COc1ccc(C=O)cc1Oc1ccc(C[C@H]2c3c(cc(OC)c4c3Oc3cc5c(cc3O4)CCN(C)C5=O)CCN2C)cc1 : 22.4
CN(C)CCNC(=O)c1cccc2c(NC(CS)C(=O)O)c3ccccc3nc12 (stereo not drawn) : 39.6
CCCCCCCCCCCCCCCCCC1=NC(C)(C)CN1CCO : 3.27
C=CC[PH+](c1ccccc1)c1ccccc1.C=CC[PH+](c1ccccc1)c1ccccc1.[Cl][Pt][Cl] : 32
c1ccc(C/C(=N\Nc2nc3ccccc3o2)c2ccccn2)cc1 : 0.921
CCCCC(=C=C1CCCCC1O)C1CCCN1C(=O)OC(C)(C)C (stereo not drawn) : 32.7

--- query ---
Query: Record request: TGI value, item `O=C(Nc1ccccc1)Nc1ccccc1CNc1nc(Nc2ccc(OCCN3CCCC3)cc2)ncc1Cl`
Response: 16.6

###

The entries below are paired with their reported TGI.
System: HL-60(TB) leukemia
protocol.description: NCI tumour cell line growth inhibition, 48 h

# count of solved cases: 3
Cc1nn(C(=O)c2ccccc2O)c2c1C(c1ccc(O)cc1)SC(N)=N2 (centres undefined) : > 4.33 µM
Cc1nc(C(N)=S)sc1C(=O)CC(=O)C(=O)Nc1cccc(Cl)c1C : > 100 µM
CC(C)C[C@H](NC(=O)[C@@H](O)[C@H](N)Cc1ccccc1)C(=O)O : > 100 µM

Attention now turns to another entry.
Query: Given the compound `Cc1ccc(S(=O)(=O)NC(=O)NS(=O)(=O)O)cc1` , what is its reported TGI?
Response: > 100 µM

###

Below, each of the molecules is paired with its reported TGI value.
Tested on: SF-295 CNS
protocol.description: NCI tumour cell line growth inhibition, 48 h

Query: Reported TGI for CCOC(=O)Cc1csc(NC(=O)C(OC(=O)c2ccc(N)cc2)c2ccccc2)n1 (stereo not drawn) : what is it?
Response: > 100 µM

Query: Recorded TGI for CC1(C)CC2(C)OC2C2(C1)N=NC(=Nc1ccccc1)O2 (stereo not drawn) , please?
Response: 29.1 µM

Query: I would be grateful if you could share the reported TGI for O=C1N2CCc3c([nH]c4ccccc34)C23CC2CCCC12S3 (stereo not drawn) .
Response: > 50 µM

Query: I have this molecule here, `CCN(CC)c1ccc(C(=C2C=CC(=[N+](CC)CC)C=C2)c2ccccc2)cc1` , and I need its recorded TGI.
Response: 0.0664 µM

Query: Fill blank: measured TGI of the molecule `O=C(CCCN1CCc2[nH]c3cc(F)ccc3c2C1)c1ccc(F)cc1` is ____.
Response: 32.7 µM

Query: Consider the molecule shown here: COC1(OC)N=C(N)C2(C#N)/C(=N/N(C)C)CC(C)C12C#N (stereo not drawn) What is its recorded TGI?
Response: > 100 µM

Query: Name the reported TGI value associated with the molecule `CCOc1ccc(NC(=S)/N=C/C(C(=O)Nc2ccccc2C)=C(\C)O)cc1`
Response: > 100 µM

Query: Find the recorded TGI belonging to `CCc1nc(N)nc(N)c1-c1ccc([N+](=O)[O-])c(Cl)c1` and report it.
Response: > 100 µM

Query: // returns reported TGI for input `C=C1c2nc3ccccc3n2C=C(c2ccccc2)N1c1ccc(OC)cc1`
Response: 25.3 µM

Query: // TGI lookup, key: COc1ccc(-c2c(C(C)=O)c(C)n(C3OC(CO)C(O)C(O)C3O)c(=S)c2C#N)cc1 (stereo not drawn)
Response: > 100 µM

Query: Reported TGI for `COC(=O)c1ccc(OCc2ccc3nc(-c4ccccc4)c(Cl)nc3c2)cc1` : what is it?
Response: > 100 µM

Query: Dear colleague, I am looking for the recorded TGI of the following molecule: `BrCC[P+](c1ccccc1)(c1ccccc1)c1ccccc1`
Response: > 100 µM

###

Test system: SN12C renal
protocol.description: NCI tumour cell line growth inhibition, 48 h; in the data active = GI50 below about 0.43 µM; inactive = the rest
Bench note: report the call from True for active, False for inactive

Previously resolved entries follow.
CC1(C)CC2(C)OC2C2(C1)N=NC(=Nc1ccccc1)O2 (centres undefined) : False
CC(C)(C)c1ccc(S(=O)(=O)N[C@H]2CC[C@H]3[C@@H]4CCc5cc(O)ccc5[C@H]4CC[C@]23C)cc1 : False

Query: Please indicate how the test categorized CCOC(=O)C1=C(c2ccccc2)N(Cc2ccccc2)C2(O)C=CC(=O)C3C(=O)N(c4ccccc4)C(=O)C132 (centres undefined) .
Response: False

Query: Assay result, entry `O=C(CN=Cc1cccs1)CSC(c1ccccc1)c1ccccc1` — outcome?
Response: False

Query: Could you check what this test reported for COC1C(CO)OC(n2c3ccccc3c3c4c(c5c6ccccc6[nH]c5c32)C(=O)NC4=O)C(O)C1OC(=O)C(N)CCCCN (centres undefined) ?
Response: True

###

Tested on: SF-295 CNS
protocol.description: NCI tumour cell line growth inhibition, 48 h; in the data active means GI50 below about 0.43 µM; inactive means the rest
Your reply should match one of these outcome classes. Y for active, N for inactive

O=C(Nc1ccccc1)Nc1ccccc1CNc1nc(Nc2ccc(OCCN3CCCC3)cc2)ncc1Cl : N
C#Cc1cccc(Nc2ncnc3ccc(-c4cncc(NS(C)(=O)=O)c4)cc23)c1 : N
CC[C@@]1(OC(=O)CN(C)C)C(=O)OCc2c1cc1n(c2=O)Cc2cc3ccccc3nc2-1 : Y
CCCCCCCCCCCCCCCCCC1=NC(C)(C)CN1CCO : N
Cc1csc(Nc2nc(-c3cccc(Cl)c3)nc(C(Cl)(Cl)Cl)n2)n1 : N
C=CC[PH+](c1ccccc1)c1ccccc1.C=CC[PH+](c1ccccc1)c1ccccc1.[Cl][Pt][Cl] : N

Query: Record lookup: outcome of this test for `CC(=O)N[C@@H]1CCC[C@H](C(=O)Nc2cc(-c3cnn4c3CC(C)(C)C4)c(Cl)cn2)C1` ?
Response: Y

Query: For `O=c1c2cc(F)ccc2sc2c(NCCCN3CCCC3)nc3ccccc3c12` , which call appears in the assay record?
Response: N

###

Tested on: UACC-257 melanoma
protocol.description: NCI tumour cell line growth inhibition, 48 h
Peptide text beside a SMILES is read from it. * marks the point of attachment. Boc = CC(C)(C)OC(=O)*
parameter: TGI

Here are 6 compounds together with their reported answers.
O=C1c2cccc3cccc(c23)C(=O)N1CCCN1CCN(CCCN2C(=O)c3cccc4cccc(c34)C2=O)CC1 : > 100 µM
Cc1ns/c(=N\C(=S)N(C)C)n1C : > 100 µM
COC(=O)c1ccc(OCc2ccc3nc(-c4ccccc4)c(Cl)nc3c2)cc1 : > 100 µM
COc1ncnc2c(-c3ccco3)cn(COCc3ccccc3)c12 : > 50 µM
COc1cc(CC(=O)c2ccc3c(c2)OCO3)cc(OC)c1OC : > 100 µM
C=C1C(=O)C[C@@]23CCC[C@@]12CC(O)C3 (some centres not stated) : 52.3 µM

Query: Consider the compound shown here: COc1cccc(N2N=C3c4ccccc4-n4c(nc5ccccc54)C3C2N)c1 (configuration not stated) What is its recorded TGI?
Response: > 100 µM

Query: Form field: reported TGI of `CSc1s[s+]c(SC)c1-c1ccccc1`
Response: 27.8 µM

Query: Param item = `CC(C)C[C@H](NC(=O)[C@@H](O)[C@H](N)Cc1ccccc1)C(=O)O` ; retrieve measured TGI.
Response: > 100 µM

Query: What value of measured TGI is listed for CSCCC(NC(=O)C(CC(C)C)NC(=O)CNC(=O)OC(C)(C)C)C(=O)N(C)C (stereo not drawn) (Boc-Gly-Leu-Met-NMe2; configuration not given here) ?
Response: > 100 µM

Query: Please report the recorded TGI for CCOC(=O)Cc1csc(NC(=O)C(OC(=O)c2ccc(N)cc2)c2ccccc2)n1 (configuration not stated) .
Response: > 100 µM

Query: Using the record for `Cc1cccc(N2C(=O)/C(=C/c3ccc(N(CCC#N)CCC#N)cc3C)N=C2c2cc([N+](=O)[O-])ccc2Cl)c1` , report its TGI.
Response: > 100 µM

Query: Return reported TGI; argument: `COc1cc(/C=C\c2cccnc2Nc2ccccc2)cc(OC)c1OC`
Response: 65.7 µM

Query: Query (compound): Cc1cc2c(cc1Cl)SC1=NN(C)C(c3ccccc3O)N1S2(=O)=O (configuration not stated) ; field requested: TGI
Response: > 100 µM

Query: State the recorded TGI for this entry: `Cc1ccc(S(=O)(=O)NC(=O)NS(=O)(=O)O)cc1`
Response: > 100 µM
